Assay Procedure: Cmax at the dose of 2 mg/Kg administered perorally in rats
Assay type: ADME, organism-based
Parameters: dose 2 mg/Kg, route oral
Cond: rat, in vivo, po
Readout Label: Cmax (ng/mL)

Completed entries (count: 2):
[
  {
    "Smiles Record": "COc1ccc(NC(=O)c2cc(OCCCN(C)C)nn2Cc2ccccc2)cc1Cl",
    "Unit Name": "ng/mL",
    "Cmax": 5.4
  },
  {
    "Smiles Record": "CN(C)CCCOc1cc(C(=O)Nc2cnc3ccccc3c2)n(Cc2ccccc2)n1",
    "Unit Name": "ng/mL",
    "Cmax": 14.3
  }
]

[I] CN(C)CCCOc1cc(C(=O)Nc2ccc(Br)cc2)n(Cc2ccccc2)n1
[II] COc1ccc(-c2ccccc2)cc1NC(=O)c1cc(OCCCN(C)C)nn1Cc1ccccc1
Pick one: I or II . Which has the bigger Cmax number? Reply with the label of the item you choose.
II
(II: 18 ng/mL, I: 12.1 ng/mL)

====

Assayed Target: Soluble guanylate cyclase (Homo sapiens, UniProt O75343+P33402+Q02108+Q02153)
Sequence (Q02153 whole entry): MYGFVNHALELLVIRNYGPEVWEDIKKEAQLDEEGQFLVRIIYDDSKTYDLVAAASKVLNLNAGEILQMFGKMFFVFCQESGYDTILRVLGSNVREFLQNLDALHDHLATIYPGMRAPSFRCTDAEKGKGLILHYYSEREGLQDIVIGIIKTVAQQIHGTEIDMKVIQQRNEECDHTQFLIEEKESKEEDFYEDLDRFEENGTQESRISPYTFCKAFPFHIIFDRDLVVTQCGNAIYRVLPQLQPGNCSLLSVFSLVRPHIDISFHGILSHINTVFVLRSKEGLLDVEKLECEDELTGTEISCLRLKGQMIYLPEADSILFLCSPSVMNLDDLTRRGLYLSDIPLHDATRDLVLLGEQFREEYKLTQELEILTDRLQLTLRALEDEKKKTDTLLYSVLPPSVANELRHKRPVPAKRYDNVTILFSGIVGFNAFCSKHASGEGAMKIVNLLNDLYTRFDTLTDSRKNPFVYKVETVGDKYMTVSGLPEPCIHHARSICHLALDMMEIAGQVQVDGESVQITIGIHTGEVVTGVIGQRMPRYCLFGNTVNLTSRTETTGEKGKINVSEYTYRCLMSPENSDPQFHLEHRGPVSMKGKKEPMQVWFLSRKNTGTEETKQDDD
Sequence (O75343 whole entry): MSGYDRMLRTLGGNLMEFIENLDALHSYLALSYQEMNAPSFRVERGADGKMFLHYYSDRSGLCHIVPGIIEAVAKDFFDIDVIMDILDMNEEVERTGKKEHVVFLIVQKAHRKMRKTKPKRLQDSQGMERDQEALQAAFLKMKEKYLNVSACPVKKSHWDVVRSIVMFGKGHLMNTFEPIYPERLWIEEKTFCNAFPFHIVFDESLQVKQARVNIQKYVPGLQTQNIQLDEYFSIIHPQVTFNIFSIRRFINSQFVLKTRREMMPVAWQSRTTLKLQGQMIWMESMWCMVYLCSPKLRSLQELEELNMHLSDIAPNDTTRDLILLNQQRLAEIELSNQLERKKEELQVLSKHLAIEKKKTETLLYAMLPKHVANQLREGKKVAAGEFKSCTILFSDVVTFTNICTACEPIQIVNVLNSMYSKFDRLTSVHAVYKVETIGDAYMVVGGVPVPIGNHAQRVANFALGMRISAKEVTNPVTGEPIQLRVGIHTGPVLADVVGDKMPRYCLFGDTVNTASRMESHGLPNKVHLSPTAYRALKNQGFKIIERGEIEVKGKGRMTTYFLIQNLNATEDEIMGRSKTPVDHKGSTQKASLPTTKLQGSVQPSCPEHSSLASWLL
Sequence (P33402 whole entry): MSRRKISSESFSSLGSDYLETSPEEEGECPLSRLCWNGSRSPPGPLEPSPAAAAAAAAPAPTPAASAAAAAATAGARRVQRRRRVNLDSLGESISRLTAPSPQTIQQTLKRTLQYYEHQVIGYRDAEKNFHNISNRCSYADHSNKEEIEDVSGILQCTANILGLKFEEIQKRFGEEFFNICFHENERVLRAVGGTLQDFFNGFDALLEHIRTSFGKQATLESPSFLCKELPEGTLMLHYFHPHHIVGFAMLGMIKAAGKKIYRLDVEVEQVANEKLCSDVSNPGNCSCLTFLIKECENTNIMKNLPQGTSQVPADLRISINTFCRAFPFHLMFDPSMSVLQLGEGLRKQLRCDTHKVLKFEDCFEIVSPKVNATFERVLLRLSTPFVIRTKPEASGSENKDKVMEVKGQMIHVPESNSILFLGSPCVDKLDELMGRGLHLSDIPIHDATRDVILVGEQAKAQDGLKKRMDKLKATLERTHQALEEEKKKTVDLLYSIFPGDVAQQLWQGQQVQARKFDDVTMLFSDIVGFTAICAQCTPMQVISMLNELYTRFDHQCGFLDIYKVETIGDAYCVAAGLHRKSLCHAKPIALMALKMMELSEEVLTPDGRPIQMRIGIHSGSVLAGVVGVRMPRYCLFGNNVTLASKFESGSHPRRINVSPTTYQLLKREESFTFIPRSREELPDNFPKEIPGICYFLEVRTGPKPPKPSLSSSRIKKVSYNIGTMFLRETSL
Sequence (Q02108 whole entry): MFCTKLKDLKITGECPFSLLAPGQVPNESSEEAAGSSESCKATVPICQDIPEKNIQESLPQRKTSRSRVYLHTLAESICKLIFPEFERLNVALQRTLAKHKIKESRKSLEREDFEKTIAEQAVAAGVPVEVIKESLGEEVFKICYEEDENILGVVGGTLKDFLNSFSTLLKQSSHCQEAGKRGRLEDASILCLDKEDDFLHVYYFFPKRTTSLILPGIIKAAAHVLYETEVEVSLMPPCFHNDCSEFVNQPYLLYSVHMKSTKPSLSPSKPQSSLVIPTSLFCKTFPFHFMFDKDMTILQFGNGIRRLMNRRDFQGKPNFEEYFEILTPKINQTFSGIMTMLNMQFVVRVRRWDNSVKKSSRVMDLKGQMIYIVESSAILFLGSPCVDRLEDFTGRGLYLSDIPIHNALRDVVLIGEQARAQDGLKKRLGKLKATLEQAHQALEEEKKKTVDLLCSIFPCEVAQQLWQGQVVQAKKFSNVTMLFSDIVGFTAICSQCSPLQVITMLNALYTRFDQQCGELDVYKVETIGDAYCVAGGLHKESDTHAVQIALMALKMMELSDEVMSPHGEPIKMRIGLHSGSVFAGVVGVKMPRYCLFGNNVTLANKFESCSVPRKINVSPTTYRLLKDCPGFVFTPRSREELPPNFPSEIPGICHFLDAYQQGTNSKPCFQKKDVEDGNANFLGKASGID
Assay Procedure: The cGMP produced by compound was expressed as a ratio between the percentage of the DEA/NO response for the compound
Readout Label: pEC50
pEC50 is a log-scale quantity: -log10 of the concentration expressed in molar.

Could you share which pEC50 value was measured for CN(C)CCCOc1nn(Cc2ccccc2)c2ccccc12 [BENZYDAMINE] ?
5.99

====

// reported inhibition at 10 µM per item
Species: Homo sapiens
Assay Procedure: Percent inhibition of collagen stimulated platelet aggregation at a concentration of 10 uM
Type: functional
Please respond with the number in % and leave the unit unwritten.

# example entries with known answers
[
  {
    "Smiles Record": "CN(C)CCCOc1cc(C(=O)Nc2nc3ccccc3[nH]2)n(Cc2ccccc2)n1",
    "Unit Name": "%",
    "inhibition at 10 µM": 13
  },
  {
    "Smiles Record": "COc1cc(NC(=O)c2cc(OCCCN(C)C)nn2Cc2ccccc2)cc(OC)c1",
    "Unit Name": "%",
    "inhibition at 10 µM": 87
  },
  {
    "Smiles Record": "CN(C)CCCOc1cc(C(=O)Nc2cnc3ccccc3c2)n(Cc2ccccc2)n1",
    "Unit Name": "%",
    "inhibition at 10 µM": 95
  }
]

Give its inhibition at 10 µM value. Item: COc1cccc(NC(=O)c2cc(OCCCN(C)C)nn2Cc2ccccc2)c1
96

Any idea what inhibition at 10 µM was measured for CN(C)CCCOc1cc(C(=O)Nc2cccc(-c3cnco3)c2)n(Cc2ccccc2)n1 ?
83

====

Assay Procedure: Stimulation of soluble guanylate cyclase (sGC) using baculovirus expressed and partially purified bovine sGC at 1 uM concentration relative to benzydamine
Readout Label: Relative enzyme activity

[
  {
    "Smiles Record": "CN(C)CCCOc1cc(C(=O)Nc2cccc(Cl)c2)n(Cc2ccccc2)n1",
    "Relative enzyme activity": 0.93
  },
  {
    "Smiles Record": "CN(C)CCCOc1cc(C(=O)Nc2nc3ccccc3[nH]2)n(Cc2ccccc2)n1",
    "Relative enzyme activity": 0.74
  },
  {
    "Smiles Record": "CN(C)CCCOc1cc(C(=O)Nc2cnc3ccccc3c2)n(Cc2ccccc2)n1",
    "Relative enzyme activity": 0.91
  },
  {
    "Smiles Record": "CN(C)CCCOc1cc(C(=O)Nc2ccc3[nH]ccc3c2)n(Cc2ccccc2)n1",
    "Relative enzyme activity": 0.91
  }
]

====

Assay Procedure: Bioavailability in rat (dose 2 mg/kg p.o.)
Assay type: ADME, organism-based
Cond: in vivo, po
Readout Label: bioavailability (%)

Before answering, review these 2 worked examples.
[
  {
    "Smiles Record": "CN(C)CCCOc1cc(C(=O)Nc2cnc3ccccc3c2)n(Cc2ccccc2)n1",
    "bioavailability / %": 19
  },
  {
    "Smiles Record": "COc1ccc(-c2ccccc2)cc1NC(=O)c1cc(OCCCN(C)C)nn1Cc1ccccc1",
    "bioavailability / %": 22
  }
]

[I] CN(C)CCCOc1cc(C(=O)Nc2ccc(Br)cc2)n(Cc2ccccc2)n1
[II] COc1ccc(NC(=O)c2cc(OCCCN(C)C)nn2Cc2ccccc2)cc1Cl
Which entry shows the lesser value of bioavailability here, I or II ? Answer by quoting the chosen item's label.
II

====

Tested on: Rattus norvegicus
Assay Procedure: Area under curve at the dose of 2 mg/Kg administered perorally in rats
Format: ADME, organism-based
Cond: in vivo, po
Readout Label: AUC (µg·h/mL)

[
  {
    "Smiles Record": "CN(C)CCCOc1cc(C(=O)Nc2cnc3ccccc3c2)n(Cc2ccccc2)n1",
    "Unit Name": "µg·h/mL",
    "Test Value": 0.095
  }
]

[P] COc1ccc(-c2ccccc2)cc1NC(=O)c1cc(OCCCN(C)C)nn1Cc1ccccc1
[Q] CN(C)CCCOc1cc(C(=O)Nc2ccc(Br)cc2)n(Cc2ccccc2)n1
[R] COc1ccc(NC(=O)c2cc(OCCCN(C)C)nn2Cc2ccccc2)cc1Cl
Would you mind ranking these compounds by ascending AUC? Please express your ranking as an ordered list of the labels.
R, Q, P
(R: 0.0326 µg·h/mL, Q: 0.0769 µg·h/mL, P: 0.131 µg·h/mL)

====

Species: Homo sapiens
Assay Procedure: Percent inhibition of collagen stimulated platelet aggregation at a concentration of 10 uM
Assay type: functional
Readout Label: inhibition at 10 µM (%)
The reply should be a number in %, with the unit left off.

# example entries with known answers
[
  {
    "Smiles Record": "CN(C)CCCOc1cc(C(=O)Nc2ccc(Br)cc2)n(Cc2ccccc2)n1",
    "inhibition at 10 µM [%]": 90
  },
  {
    "Smiles Record": "CN(C)CCCOc1cc(C(=O)Nc2ccc3c(c2)C(=O)N(C)C3=O)n(Cc2ccccc2)n1",
    "inhibition at 10 µM [%]": 64
  },
  {
    "Smiles Record": "CN(C)CCCOc1cc(C(=O)Nc2ccccc2F)n(Cc2ccccc2)n1",
    "inhibition at 10 µM [%]": 58
  },
  {
    "Smiles Record": "CN(C)CCCOc1cc(C(=O)Nc2cc(F)cc(F)c2)n(Cc2ccccc2)n1",
    "inhibition at 10 µM [%]": 44
  },
  {
    "Smiles Record": "CN(C)CCCOc1cc(C(=O)Nc2ccc(-c3csnn3)cc2)n(Cc2ccccc2)n1",
    "inhibition at 10 µM [%]": 96
  }
]

# lookup: inhibition at 10 µM of CN(C)CCCOc1cc(C(=O)Nc2ccn(-c3ccccc3)n2)n(Cc2ccccc2)n1
75

Name the recorded inhibition at 10 µM for COc1ccc(NC(=O)c2cc(OCCCN(C)C)nn2Cc2ccccc2)cc1 .
83

Need inhibition at 10 µM of COc1ccc(NC(=O)c2cc(OCCCN(C)C)nn2Cc2ccccc2)cc1Cl , thanks.
93

Name the recorded inhibition at 10 µM for CN(C)CCCOc1cc(C(=O)Nc2ccc(OC(F)(F)F)cc2)n(Cc2ccccc2)n1 .
85

What does the data say about its inhibition at 10 µM? Entry: CN(C)CCCOc1cc(C(=O)Nc2nccs2)n(Cc2ccccc2)n1
27

====

Assay Procedure: Cmax at the dose of 5 mg/Kg administered perorally in rats
Type: ADME, organism-based
Set-up: dose 5 mg/Kg, route oral
Cond: rat, in vivo, po
Readout Label: Cmax (ng/mL)
Hi! Could you send only the number? It should be in ng/mL, unit omitted.

// returns reported Cmax for input COc1ccc(NC(=O)c2cc(OCCCN(C)C)nn2Cc2ccccc2)cc1
6.4

====

Assay Procedure: Tmax at the dose of 2 mg/Kg administered perorally in rats
Format: ADME, organism-based
Cond: rat, in vivo, po
Readout Label: Tmax (h)

[
  {
    "Smiles Record": "COc1ccc(NC(=O)c2cc(OCCCN(C)C)nn2Cc2ccccc2)cc1Cl",
    "Readout Label": "Tmax",
    "Unit Name": "h",
    "Test Value": 4.5
  },
  {
    "Smiles Record": "CN(C)CCCOc1cc(C(=O)Nc2ccc(Br)cc2)n(Cc2ccccc2)n1",
    "Readout Label": "Tmax",
    "Unit Name": "h",
    "Test Value": 5
  }
]

[a] CN(C)CCCOc1cc(C(=O)Nc2cnc3ccccc3c2)n(Cc2ccccc2)n1
[b] COc1ccc(-c2ccccc2)cc1NC(=O)c1cc(OCCCN(C)C)nn1Cc1ccccc1
Which record would sort first by descending Tmax, a or b ? Response format: the label of the selected entry.
b
(b: 7.3 h, a: 5 h)

====

Assay Procedure: Stimulation of soluble guanylate cyclase (sGC) using baculovirus expressed and partially purified bovine sGC at 1 uM concentration relative to benzydamine
Readout Label: Relative enzyme activity

[
  {
    "Smiles Record": "CN(C)CCCOc1cc(C(=O)Nc2cc(F)cc(C(F)(F)F)c2)n(Cc2ccccc2)n1",
    "Readout Label": "Relative enzyme activity",
    "Test Value": 0.9
  },
  {
    "Smiles Record": "CN(C)CCCOc1cc(C(=O)Nc2ccc(Cl)cc2F)n(Cc2ccccc2)n1",
    "Readout Label": "Relative enzyme activity",
    "Test Value": 0.91
  },
  {
    "Smiles Record": "COc1ccc(NC(=O)c2cc(OCCCN(C)C)nn2Cc2ccccc2)cc1Cl",
    "Readout Label": "Relative enzyme activity",
    "Test Value": 0.88
  }
]
